Molecular target: Delta-type opioid receptor (Mus musculus)
Sequence (P32300 whole entry): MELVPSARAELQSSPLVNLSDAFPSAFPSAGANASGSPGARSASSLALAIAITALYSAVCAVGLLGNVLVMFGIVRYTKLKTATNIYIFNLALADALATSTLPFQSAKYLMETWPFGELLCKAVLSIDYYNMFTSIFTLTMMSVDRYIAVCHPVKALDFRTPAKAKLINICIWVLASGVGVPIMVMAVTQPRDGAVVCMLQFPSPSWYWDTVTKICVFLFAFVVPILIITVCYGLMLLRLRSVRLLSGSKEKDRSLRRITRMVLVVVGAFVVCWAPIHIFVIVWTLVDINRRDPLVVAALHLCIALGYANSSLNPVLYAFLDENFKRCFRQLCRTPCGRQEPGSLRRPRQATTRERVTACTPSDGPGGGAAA
Assay: Antagonist activity against delta opioid receptor in mouse vas deference assessed as effect on DPDPE-induced response
measure.name: Ki (nM)
Response body: numeric value in nM, unit text excluded.

## Input For the compound Cc1cc(O)cc(C)c1CCC(=O)N[C@@H]1CCCCNC(=O)NC[C@@H](C(N)=O)NC(=O)[C@H](Cc2ccccc2)NC(=O)CNC1=O , give its reported Ki.
## Output 273
